# credit: ChEMBL document CHEMBL6127124

Please go through the items and note down their CC50.
Assay: Cytotoxicity in human HepG2.2.15 cells by Cell Titer-Glo assay
Assay type: toxicity, cell-based, HepG2 2.2.15

Structure As Smiles	Property Name	Reading
CC(C)(C)[C@@H]1Cc2c(nc3c(C(F)F)cccn23)-c2[nH]c(=O)c(C(=O)O)cc21	CC50	> 50 µM
CC(C)(C)[C@@H]1Cc2c(nc3c(C(F)(F)F)cc(Cl)cn23)-c2[nH]c(=O)c(C(=O)O)cc21	CC50	> 50 µM

Value of measured CC50 for the entry COc1ccn2c3c(nc2c1OC(F)F)-c1[nH]c(=O)c(C(=O)O)cc1[C@H](C(C)(C)C)C3 : > 50 µM
